As shown below, each of these binders has a reported mAb-1 Binding to the Pre-complex of mAb-2 & hIL-33 value.
Target: T1, human IL-33 (R&D Systems, #3625-IL-010/CF) (human, UniProt O95760 112-270)
T1 construct: Commercial recombinant protein; also called hIL-33; interleukin-33
T1 sequence (looked up): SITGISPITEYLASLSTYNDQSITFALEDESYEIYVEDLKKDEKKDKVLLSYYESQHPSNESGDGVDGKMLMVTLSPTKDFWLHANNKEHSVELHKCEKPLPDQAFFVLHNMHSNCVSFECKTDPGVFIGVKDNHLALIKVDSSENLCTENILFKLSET
Assay: BLI; hIL-33 pre-mixed with mAb-2 H1M9565N
Form entry: value (nm) — number only.

Query :: State its mAb-1 Binding to the Pre-complex of mAb-2 & hIL-33 for this binder: H4H9672P (antibody, human IgG4, V domains shown, Human IgG4 Fc (H4H)) VH: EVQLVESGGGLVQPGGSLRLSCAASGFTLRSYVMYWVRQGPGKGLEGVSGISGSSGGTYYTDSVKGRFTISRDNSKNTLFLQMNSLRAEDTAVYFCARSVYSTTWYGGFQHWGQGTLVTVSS VL: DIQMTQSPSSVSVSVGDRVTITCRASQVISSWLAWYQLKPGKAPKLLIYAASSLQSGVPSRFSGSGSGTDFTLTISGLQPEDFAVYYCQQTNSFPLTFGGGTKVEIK
Result :: 0.52

Query :: State its mAb-1 Binding to the Pre-complex of mAb-2 & hIL-33 for this binder: H1M9559N (antibody, mouse IgG1, V domains shown, Human variable domains, mouse IgG1 Fc (H1M)) VH: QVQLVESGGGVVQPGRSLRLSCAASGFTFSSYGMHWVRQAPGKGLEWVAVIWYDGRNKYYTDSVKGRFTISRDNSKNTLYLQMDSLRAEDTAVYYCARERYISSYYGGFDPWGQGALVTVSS VL: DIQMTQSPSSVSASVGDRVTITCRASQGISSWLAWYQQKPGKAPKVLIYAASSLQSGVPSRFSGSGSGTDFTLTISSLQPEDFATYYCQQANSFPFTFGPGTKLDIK
Result :: 0.35

Query :: State its mAb-1 Binding to the Pre-complex of mAb-2 & hIL-33 for this binder: H4H9671P (antibody, human IgG4, V domains shown, Human IgG4 Fc (H4H)) VH: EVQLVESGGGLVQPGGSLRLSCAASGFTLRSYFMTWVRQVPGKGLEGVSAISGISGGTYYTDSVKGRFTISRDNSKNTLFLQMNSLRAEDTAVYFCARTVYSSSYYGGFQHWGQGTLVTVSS VL: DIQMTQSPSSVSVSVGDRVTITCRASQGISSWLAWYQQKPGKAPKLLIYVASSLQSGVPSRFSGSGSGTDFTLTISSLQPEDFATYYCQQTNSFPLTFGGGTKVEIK
Result :: 0.57

Query :: State its mAb-1 Binding to the Pre-complex of mAb-2 & hIL-33 for this binder: H4H9629P (antibody, human IgG4, V domains shown, Human IgG4 Fc (H4H)) VH: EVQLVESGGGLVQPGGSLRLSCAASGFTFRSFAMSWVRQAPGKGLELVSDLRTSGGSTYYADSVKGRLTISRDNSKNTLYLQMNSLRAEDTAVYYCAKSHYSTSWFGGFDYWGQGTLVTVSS VL: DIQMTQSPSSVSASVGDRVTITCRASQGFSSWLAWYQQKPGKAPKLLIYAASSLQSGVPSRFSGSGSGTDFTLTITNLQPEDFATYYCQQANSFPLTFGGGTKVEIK
Result :: 0.74

Query :: State its mAb-1 Binding to the Pre-complex of mAb-2 & hIL-33 for this binder: H4H9666P (antibody, human IgG4, V domains shown, Human IgG4 Fc (H4H)) VH: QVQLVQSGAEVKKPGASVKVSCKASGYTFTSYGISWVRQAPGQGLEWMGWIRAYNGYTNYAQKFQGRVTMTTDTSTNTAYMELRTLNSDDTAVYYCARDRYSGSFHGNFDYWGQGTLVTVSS VL: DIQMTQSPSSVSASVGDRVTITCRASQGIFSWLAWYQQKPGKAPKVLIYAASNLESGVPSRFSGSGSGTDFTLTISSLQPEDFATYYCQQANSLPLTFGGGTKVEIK
Result :: 0.56

More entries:
Query :: State its mAb-1 Binding to the Pre-complex of mAb-2 & hIL-33 for this binder: H4H9659P (antibody, human IgG4, V domains shown, Human IgG4 Fc (H4H)) VH: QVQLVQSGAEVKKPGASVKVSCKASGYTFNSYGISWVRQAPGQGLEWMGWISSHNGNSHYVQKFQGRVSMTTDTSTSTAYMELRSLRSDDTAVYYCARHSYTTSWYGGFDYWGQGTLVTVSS VL: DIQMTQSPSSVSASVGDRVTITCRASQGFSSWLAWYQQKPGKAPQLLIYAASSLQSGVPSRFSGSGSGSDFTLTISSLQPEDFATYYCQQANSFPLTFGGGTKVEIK
Result :: 0.52

Query :: State its mAb-1 Binding to the Pre-complex of mAb-2 & hIL-33 for this binder: H4H9640P (antibody, human IgG4, V domains shown, Human IgG4 Fc (H4H)) VH: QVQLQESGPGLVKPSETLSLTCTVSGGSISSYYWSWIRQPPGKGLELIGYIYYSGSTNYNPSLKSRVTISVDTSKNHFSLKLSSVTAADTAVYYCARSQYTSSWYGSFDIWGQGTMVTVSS VL: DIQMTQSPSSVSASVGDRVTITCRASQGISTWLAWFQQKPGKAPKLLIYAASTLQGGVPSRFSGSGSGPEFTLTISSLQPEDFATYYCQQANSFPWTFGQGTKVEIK
Result :: 0.57

Query :: State its mAb-1 Binding to the Pre-complex of mAb-2 & hIL-33 for this binder: H4H9675P (antibody, human IgG4, V domains shown, Human IgG4 Fc (H4H)) VH: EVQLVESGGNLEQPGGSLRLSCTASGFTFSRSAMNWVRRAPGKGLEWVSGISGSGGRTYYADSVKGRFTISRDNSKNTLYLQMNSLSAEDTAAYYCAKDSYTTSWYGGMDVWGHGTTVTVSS VL: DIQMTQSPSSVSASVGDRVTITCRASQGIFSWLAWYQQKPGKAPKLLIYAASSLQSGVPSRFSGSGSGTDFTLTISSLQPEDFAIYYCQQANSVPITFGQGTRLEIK
Result :: 0.51

Query :: State its mAb-1 Binding to the Pre-complex of mAb-2 & hIL-33 for this binder: H4H9667P (antibody, human IgG4, V domains shown, Human IgG4 Fc (H4H)) VH: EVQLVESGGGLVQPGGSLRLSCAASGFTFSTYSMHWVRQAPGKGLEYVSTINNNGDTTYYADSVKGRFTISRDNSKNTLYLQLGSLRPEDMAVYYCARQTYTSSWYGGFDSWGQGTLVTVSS VL: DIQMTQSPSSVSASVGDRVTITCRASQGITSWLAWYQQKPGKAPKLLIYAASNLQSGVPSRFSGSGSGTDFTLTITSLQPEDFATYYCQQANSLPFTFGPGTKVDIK
Result :: 0.48

Query :: State its mAb-1 Binding to the Pre-complex of mAb-2 & hIL-33 for this binder: H4H9662P (antibody, V domains shown, Human IgG4 Fc (H4H)) VH: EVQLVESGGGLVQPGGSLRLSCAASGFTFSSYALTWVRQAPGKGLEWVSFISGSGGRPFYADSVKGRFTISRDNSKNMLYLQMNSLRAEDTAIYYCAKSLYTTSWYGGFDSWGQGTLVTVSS VL: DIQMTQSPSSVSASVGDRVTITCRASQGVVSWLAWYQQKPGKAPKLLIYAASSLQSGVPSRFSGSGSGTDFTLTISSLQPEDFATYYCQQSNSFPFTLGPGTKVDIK
Result :: 0.57
